- Test system: MDA-N
- experiment: NCI tumour cell line growth inhibition, 48 h
Activity calls are given as the source filed them. Rule as the data show it: active = GI50 up to about 1.1 µM and inactive = higher. Where a SMILES comes first, the peptide text is derived from it. [ ]: non-standard residue; d: D form. The star is where a group is joined. Hyp = O=C(O)[CH]1C[CH](O)CN1; Cbz = O=C(OCc1ccccc1)*
Outcome codes: active, inactive

compound: CCCCS/C(=C(/C#N)C(N)=O)c1cc2c([nH]1)CCCC2
assigned.class: inactive
//
compound: CS(=O)(=O)Nc1ccc(Nc2c3ccccc3nc3ccccc23)cc1
assigned.class: inactive
//
compound: COc1cc2c(cc1C[N+](C)(C)CSc1ccccc1)-c1ccccc1CC2
assigned.class: inactive
//
compound: COc1cc(COC(=O)N(CC(=O)O)c2ccccc2)c([N+](=O)[O-])cc1OC
assigned.class: inactive
//
compound: CC(C)(C)[Si](C)(C)OCC1CCC(n2cnc3c(=O)[nH]cnc32)O1 (stereo unspecified)
assigned.class: inactive
//
compound: Cc1nnc(Sc2nc(C#N)c(C#N)nc2Sc2nnc(C)s2)s1
assigned.class: inactive
//
compound: CC(C)=C[C@H]1CCC2(OCCO2)[C@]1(C)CO
assigned.class: inactive
//
compound: C=CC[C@]12C=C(OC)[C@@H](O)[C@](OC)(C(c3cc(OC)c4c(c3)OCO4)[C@H]1C)[C@H]2OC(C)=O (stereo partly specified)
assigned.class: inactive
//
compound: COc1ccc(C(c2c[nH]c3ccc(Br)cc23)c2c[nH]c3ccc(Br)cc23)cc1
assigned.class: active
//
compound: COc1cc2c[n+](C)c3c4cc(OC)c(OCc5ccccc5)cc4c(OCc4ccccc4)cc3c2cc1OC
assigned.class: inactive
//
compound: COc1ccc(Oc2nc3cc(C(F)(F)F)ccc3nc2C(C)C)cc1
assigned.class: inactive
//
compound: CC1(C)OC(CP(c2ccccc2)c2ccccc2)C(CP(c2ccccc2)c2ccccc2)O1 (stereo unspecified)
assigned.class: inactive
//
compound: NC(=O)CNC(=O)C1CC(O)CN1C(=O)C1CCCN1C(=O)OCc1ccccc1 (stereo not drawn) (Cbz-Pro-[Hyp]-Gly-NH2; configuration not given here)
assigned.class: inactive
//
compound: CC1CC[C@@]2(OC1)O[C@H]1C[C@H]3[C@@H]4CC[C@H]5C[C@@H](OC6OC(CO)C(OC7OC(CO)C(OC8OC(CO)C(O)C(OC9OC(C)C(OC%10OC(C)C(O)C(O)C%10O)C(O)C9O)C8OC8OCC(O)C(O)C8O)C(O)C7O)C(O)C6O)CC[C@]5(C)[C@H]4CC(=O)[C@]3(C)[C@H]1[C@@H]2C (stereo partly specified)
assigned.class: inactive
//
compound: COc1ccc(C2c3cc4c(cc3OC(NNc3ccccc3)C2C)OCO4)cc1 (stereo unspecified)
assigned.class: inactive
//
compound: CCOC(=O)NC1=C(N2CC2)C(=O)C(NC(=O)OCC)=C(N2CC2)C1=O
assigned.class: inactive
//
compound: CC(=O)[C@@H](C)C(=O)N1C(=O)OC[C@@]12[C@@H]1CC[C@@H](C1)C2(C)C
assigned.class: inactive
//
compound: COc1cc(/C=C\c2nnc(/C=C\c3ccc(O)c(OC)c3)s2)ccc1O
assigned.class: active
//
compound: C=CCCCC1CCCNC1=O (stereo unspecified)
assigned.class: inactive
//
compound: CC(=O)OCC1OC(n2c(-c3ccccc3)c(C(C)=O)c(-c3cccc4ccccc34)c(C#N)c2=S)C(OC(C)=O)C(OC(C)=O)C1OC(C)=O (stereo unspecified)
assigned.class: inactive
//
compound: O=C(CC(Cc1ccccc1)c1ccc(Oc2ccccc2)cc1)Nc1cccc(Cl)c1 (stereo unspecified)
assigned.class: inactive

---

- Test system: NCI/ADR-RES
- experiment: NCI tumour cell line growth inhibition, 48 h
Active and inactive are the calls of the source. Rule as the data show it: active = GI50 up to about 1.1 µM and inactive = higher. Where a SMILES comes first, the peptide text is derived from it. [ ]: non-standard residue; d: D form. The star is where a group is joined. Hyp = O=C(O)[CH]1C[CH](O)CN1; Cbz = O=C(OCc1ccccc1)*
Outcome codes: TRUE for active, FALSE for inactive

compound: CC(=O)OC(C)(C)CCC(=O)[C@](C)(O)[C@H]1[C@H](O)C[C@@]2(C)[C@@H]3CCc4c(cc(OC5OC(CO)C(O)C(O)C5O)c(O)c4C)C3(C)C(=O)C[C@]12C (stereo partly drawn)
assigned.class: FALSE

compound: Cc1nc2ccccc2c(=O)n1Nc1ccc(C(=O)O)cc1
assigned.class: FALSE

compound: Cc1ccccc1S(=O)(=O)Nn1cnc2ccc(S(=O)(=O)Nc3ccc(Cl)cc3)cc2c1=O
assigned.class: FALSE

compound: NC(=S)N/N=C1\C(=O)C=C(Nc2ccc(Cl)cc2Cl)c2ccccc21
assigned.class: FALSE

compound: c1ccc2c3c(ccc2c1)-c1[nH]ncc1CCO3
assigned.class: FALSE

compound: O=C1N[C@H]2c3c(Cl)sc(Cl)c3C(=O)[C@H]2O1
assigned.class: FALSE

compound: CCCCCCCC(CC(=O)NC(CO)C(=O)NC(CO)CC(C)C)OC(=O)CC(CCCCCCC)OC(=O)CC(CCCCCCC)OC1OC(C)C(O)C(OC2OC(C)C(O)C(O)C2O)C1O (stereo not drawn)
assigned.class: FALSE

compound: CCn1c(-c2ccc(F)cc2)nc2c1C(=O)c1ccccc1C2=O
assigned.class: FALSE

compound: CCOC(=O)c1nc2ccccc2nc1NCc1ccc(OC)cc1
assigned.class: FALSE

compound: O=C1NC(=O)C2C3C=CC(C12)C1C2C(=O)NC(=O)C2C31 (stereo not drawn)
assigned.class: FALSE

compound: O=C(CSc1nnc(-c2ccccn2)s1)N/N=C/c1ccccc1
assigned.class: FALSE

compound: C=C/C(C)=C\CC1[C@](C)(O)CC[C@H]2C(C)(C)C(O)CC[C@]12C (stereo partly drawn)
assigned.class: FALSE

compound: CCN1C/C(=C\c2cc(OC)c(OC)c(OC)c2)C2=NN(c3ccccc3)C(c3cc(OC)c(OC)c(OC)c3)C2C1 (stereo not drawn)
assigned.class: FALSE

compound: CCCCn1c2c(c3ccccc3c1=O)C(=O)c1ccccc1-2
assigned.class: FALSE

compound: COc1cc2c(cc1O)CC[n+]1cc3c(OC)c(OC)ccc3cc1-2
assigned.class: FALSE

compound: O=C1c2ccccc2C(=O)N1NC1=NCCN1
assigned.class: FALSE

compound: COC(=O)c1cccc(N[C@@H]2c3cc4c(cc3C(c3cc(OC)c(O)c(OC)c3)[C@H]3C(=O)OCC32)OCO4)c1 (stereo partly drawn)
assigned.class: TRUE

compound: COc1cc(COC(=O)N(CC(=O)O)c2ccccc2)c([N+](=O)[O-])cc1OC
assigned.class: FALSE

compound: COc1ccc(Oc2nc3cc(C(F)(F)F)ccc3nc2C(C)C)cc1
assigned.class: FALSE

compound: [N-]=[N+]=NCC1OC(n2cnc3c(N)ncnc32)C2OC12 (stereo not drawn)
assigned.class: FALSE

compound: Cc1cc(=O)oc2c(CN3CCCCC3)c(O)ccc12
assigned.class: FALSE

compound: N#Cc1c(-c2ccc([N+](=O)[O-])cc2)cc(-c2ccc(Nc3ccnc4cc(Cl)ccc34)cc2)nc1N
assigned.class: FALSE

compound: O=c1[nH]nc(Cc2ccccc2)n1/N=C/c1ccc([N+](=O)[O-])o1
assigned.class: FALSE

compound: Cc1nn(C(=O)c2ccncc2)c2c1C(c1ccc([N+](=O)[O-])cc1)SC(=N)N2 (stereo not drawn)
assigned.class: FALSE

compound: O=C1NC(=O)/C(=C/c2ccc(S(=O)(=O)N/N=C/c3ccc(Cl)cc3)cc2)N1
assigned.class: FALSE

compound: CC(C)[C@](O)(C(=O)OCC1=CCN2CC[C@@H](O)[C@@H]12)[C@H](C)O
assigned.class: FALSE

compound: CCCc1nnc2sc(COc3cc(Cl)c(OCc4nn5c(CCC)nnc5s4)cc3Cl)nn12
assigned.class: FALSE

compound: CCN(CC)CCC(=O)c1ccc(Oc2ccccc2)cc1
assigned.class: FALSE

compound: COc1ccc2cc(C(=O)O)ccc2c1OC
assigned.class: FALSE

compound: COc1ccc(CN(Cc2ccc(OC)cc2)C(=O)CC2(O)C=CCC2)cc1 (stereo not drawn)
assigned.class: FALSE

compound: CC(C)(C)[Si](C)(C)OCC1CCC(n2cnc3c(=O)[nH]cnc32)O1 (stereo not drawn)
assigned.class: FALSE

compound: COc1ccc(C(c2c[nH]c3ccc(Br)cc23)c2c[nH]c3ccc(Br)cc23)cc1
assigned.class: TRUE

compound: CCCN(CCC)c1cc2c(cc1F)c(=O)c(C(=O)O)cn2-c1ccc(N2CCN(C)CC2)cn1
assigned.class: FALSE

compound: NC(=O)CNC(=O)C1CC(O)CN1C(=O)C1CCCN1C(=O)OCc1ccccc1 (stereo not drawn) (Cbz-Pro-[Hyp]-Gly-NH2; configuration not given here)
assigned.class: FALSE

compound: CC(=O)OCC(OC(C)=O)C(OC(C)=O)C(/C=N/N(C(C)=O)S(=O)(=O)c1ccc(/C=C2\NC(=O)NC2=O)cc1)OC(C)=O (stereo not drawn)
assigned.class: FALSE

compound: COc1cc(O)c2c(=O)cc(C3(O)C=CC(=O)C=C3)oc2c1
assigned.class: TRUE

compound: C=C1CCC2CC1C(C(=O)c1c[nH]c3ccccc13)=NC2(C)C (stereo not drawn)
assigned.class: FALSE

compound: Cc1cc(=O)oc2c(OS(C)(=O)=O)c(OS(C)(=O)=O)ccc12
assigned.class: FALSE
